Values from ChEMBL document CHEMBL3885861

Item-by-item account of Ht
Species on record: Rattus norvegicus
Test: Open TG-GATES - Regimen: Single
Assay type: toxicity, organism-based, Sprague-Dawley
Design: regimen Single, gender Male, age 6 weeks
Conditions: in vivo, po, 0 mg/kg, 3 h, tissue Blood, route gavage, dose level Control
Express the result in % but write the number alone.

Some solved entries appear below for comparison.
> print(dat)
                                   molecule  readout.unit  observed.measurement
1  CSc1ccc2c(c1)N(CCC1CCCCN1C)c1ccccc1S2 (stereo unspecified) [THIORIDAZINE]             %                  38.9
2  COc1ccc(Cc2nccc3cc(OC)c(OC)cc23)cc1OC [PAPAVERINE]             %                  40.3
3  NC(=O)N1c2ccccc2C=Cc2ccccc21 [CARBAMAZEPINE]             %                  38.6
4           CC(=O)Oc1ccccc1C(=O)O [ASPIRIN]             %                  37.1
5  C[C@H](CS)C(=O)N1CCC[C@H]1C(=O)O [CAPTOPRIL]             %                  39.7

With those in mind, consider the next molecule.
Asked: Which value of Ht has been reported for NC(=O)N/N=C/c1ccc([N+](=O)[O-])o1 [NITROFURAZONE] in the records?
Given back: 39.7

* * *

Item-by-item account of Plat
Species: Rattus norvegicus
Test: Open TG-GATES - Regimen: Daily Repeat
Type: toxicity, organism-based, Sprague-Dawley
Set-up: regimen Daily Repeat, gender Male, age 6 weeks
Settings: in vivo, po, 0 mg/kg, […], tissue Blood, route gavage, dose level Control, time 14 day
Express the result in x10_4/uL but write the number alone.

Some solved entries appear below for comparison.
Molecule	Plat (x10_4/uL)
CN(C)CCC=C1c2ccccc2CCc2ccccc21 [AMITRIPTYLINE]	127.9
O=C(O)c1cn(C2CC2)c2cc(N3CCNCC3)c(F)cc2c1=O [CIPROFLOXACIN]	111.2
COc1ccc2c(c1)c(CC(=O)O)c(C)n2C(=O)c1ccc(Cl)cc1 [INDOMETHACIN]	110.6
CCc1cc(C(N)=S)ccn1 [ETHIONAMIDE]	120.6
COc1ccc(Cc2nccc3cc(OC)c(OC)cc23)cc1OC [PAPAVERINE]	107
CSc1ccc2c(c1)N(CCC1CCCCN1C)c1ccccc1S2 (centres undefined) [THIORIDAZINE]	106.3
CCCC(CCC)C(=O)O [VALPROIC ACID]	140.4
Clc1ccccc1CN1CCc2sccc2C1 [TICLOPIDINE]	116.1

With those in mind, consider the next molecule.
Asked: Which value of Plat has been reported for CO[C@H]1/C=C/O[C@@]2(C)Oc3c(C)c(O)c4c(O)c(c(/C=N/N5CCN(C)CC5)c(O)c4c3C2=O)NC(=O)/C(C)=C\C=C\[C@H](C)[C@H](O)[C@@H](C)[C@@H](O)[C@@H](C)[C@H](OC(C)=O)[C@@H]1C [RIFAMPIN] in the records?
Given back: 112.5

* * *

Organism: Rattus norvegicus
Assay: Open TG-GATES - Regimen: Single
Type: toxicity, organism-based, Sprague-Dawley
Set-up: regimen Single, gender Male, age 6 weeks
Conditions: in vivo, po, 1000 mg/kg, 9 h, tissue Blood, route gavage, dose level High
Reported endpoint: MCV (fL)
Express the result in fL but write the number alone.

> print(dat)
                                   compound  reported.endpoint  observed.measurement
1  O=C(O)c1cn(C2CC2)c2cc(N3CCNCC3)c(F)cc2c1=O                MCV                  66.5
2          C[C@H](CS)C(=O)N1CCC[C@H]1C(=O)O                MCV                  63.4
3  O=C(O)c1cc(/N=N/c2ccc(S(=O)(=O)Nc3ccccn3)cc2)ccc1O                MCV                  63.7

Asked: Which value of MCV has been reported for CCc1cc(C(N)=S)ccn1 [ETHIONAMIDE] in the records?
Given back: 62.8

Asked: Same question for Clc1ccccc1CN1CCc2sccc2C1 please.
Given back: 60.9
